Exercise: state measured inhibition at 5 µM for each of the compounds provided.
Tested on: RAW264.7
Experiment: Inhibition of LPS-induced nitric oxide production in mouse RAW264.7 cells at 5 uM
Assay type: functional
One number for each entry, in %.

The cases that follow already have their inhibition at 5 µM on record.
- compound: "CC(=O)OC[C@@]12[C@@H](OC(=O)/C=C/c3ccccc3)CC[C@](C)(O)[C@]13OC(C)(C)[C@H](C(=O)[C@H]2OC(=O)c1cccnc1)[C@H]3O (relative stereo) [TRIPTERSININ A]"
  numericReadout: 47.3
- compound: "CC(=O)OC[C@@]12[C@@H](OC(=O)c3ccoc3)CC[C@](C)(O)[C@]13OC(C)(C)[C@H]([C@@H](OC(C)=O)[C@H]2OC(=O)c1ccoc1)[C@H]3OC(C)=O (relative stereo) [TRIPTERSININ K]"
  numericReadout: 49.9

Please indicate inhibition at 5 µM recorded for CC(=O)OC[C@@]12[C@@H](OC(=O)c3ccoc3)CC[C@](C)(O)[C@]13OC(C)(C)[C@H]([C@@H](OC(C)=O)[C@H]2OC(=O)c1ccoc1)[C@H]3O (relative stereo) [TRIPTERSININ I]
45.5

Data origin, for the record: ChEMBL document CHEMBL2331283
